System Tested: T1, human CD3 (human, UniProt P07766 23-207; P04234 22-171; P09693 23-182)
T1 construct: whole, on cells; also called hCD3; CD3 on Jurkat cells
T1 sequence (P07766 23-207, chain 1 of 3): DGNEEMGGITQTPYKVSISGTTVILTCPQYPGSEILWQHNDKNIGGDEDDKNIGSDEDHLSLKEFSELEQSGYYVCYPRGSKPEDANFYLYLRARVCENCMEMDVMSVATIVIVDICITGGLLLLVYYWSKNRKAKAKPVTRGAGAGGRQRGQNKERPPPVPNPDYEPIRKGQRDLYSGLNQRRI
T1 sequence (P04234 22-171, chain 2 of 3): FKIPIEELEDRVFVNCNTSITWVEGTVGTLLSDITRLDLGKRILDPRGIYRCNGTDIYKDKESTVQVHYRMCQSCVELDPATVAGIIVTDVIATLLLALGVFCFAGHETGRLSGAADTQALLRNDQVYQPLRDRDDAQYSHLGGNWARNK
T1 sequence (P09693 23-182, chain 3 of 3): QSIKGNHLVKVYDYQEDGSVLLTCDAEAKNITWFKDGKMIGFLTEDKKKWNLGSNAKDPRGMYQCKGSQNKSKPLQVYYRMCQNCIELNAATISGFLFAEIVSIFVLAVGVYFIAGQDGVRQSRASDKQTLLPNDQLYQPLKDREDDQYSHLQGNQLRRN
Method Description: FACS on Jurkat cells; further: test concentration or dose not given here
Endpoint Label: FACS MFI (MFI)
Value expressed in MFI; do not type the unit.

Sample answers from the record:
133B4C7 (antibody, V domains shown, mouse monoclonal (hybridoma) antibody) VH: QVQLQQPGTELVKPGASVKLSCKASGYTFTSYWMHWVKQRPGQGLEWIGNINPSNGDTNFNEKFKSKATLTVDKSSSTAYMQLSSLTSEDSAVYYCARDRSSQYYFDYWGQGTTLTVSS VL: DIVMSQSPSSLAVSAGEKVTMSCNSSQSLLNSRTRKNYLAWYQQKPGQSPKLLIYWASTRESGVPDRFTGSGSGTDFTLTISSVQAEDLAVYYCKQSYTLRTFGGGTKLEIK ... 681
124E3D6 (antibody, V domains shown, mouse monoclonal (hybridoma) antibody) VH: QVQLQQPGTELVKPGASVKLSCKASGYTFTSYWMHWVKQRPGQGLEWIGNINPSNGDTNYNEKFKSKATLTVDKSSSTAYMQLSSLTSEDSAVYYCARDRSSQYYFDYWGQGTTLTVSS VL: DIVMSQSPSSLAVSAGEKVTMSCKSSQSLLNSRTRKNYLAWYQQKPGQSPKLLIYWASTRESGVPDRFTGSGSGTDFTLTISSVQAEDLAVYYCKQSYNLRTFGGGTKLEIK ... 126

Now examine the next entry.
Prompt: Please report the recorded FACS MFI for 127E2D3 (antibody, V domains shown, mouse monoclonal (hybridoma) antibody) VH: QVQLQQPGTELVKPGASVKLSCKASGYTFTSYWMHWVKQRPGEGLEWIGNIYPGSSSINYNEKFKSKATLTVDKSSSTAYMQLSSLTSEDSAVYYCARDRSSQYYFDYWGQGTTLTVSS VL: DIVMSQSPSSLAVSAGEKVTMSCKSSQSLLNSRTRKNYLAWYQQKPGQSPKLLIYWASTRESGVPDRFTGSGSGTDFTLTISSVQAEDLAVYYCTQSYNLRTFGGGTKLEIK .
Response: 930
